Target: T1, monkey CD22 on HEK293T-monkey CD22 cells (monkey)
T1 construct: full-length entry expressed on stably transfected HEK293T cells
T1 chain: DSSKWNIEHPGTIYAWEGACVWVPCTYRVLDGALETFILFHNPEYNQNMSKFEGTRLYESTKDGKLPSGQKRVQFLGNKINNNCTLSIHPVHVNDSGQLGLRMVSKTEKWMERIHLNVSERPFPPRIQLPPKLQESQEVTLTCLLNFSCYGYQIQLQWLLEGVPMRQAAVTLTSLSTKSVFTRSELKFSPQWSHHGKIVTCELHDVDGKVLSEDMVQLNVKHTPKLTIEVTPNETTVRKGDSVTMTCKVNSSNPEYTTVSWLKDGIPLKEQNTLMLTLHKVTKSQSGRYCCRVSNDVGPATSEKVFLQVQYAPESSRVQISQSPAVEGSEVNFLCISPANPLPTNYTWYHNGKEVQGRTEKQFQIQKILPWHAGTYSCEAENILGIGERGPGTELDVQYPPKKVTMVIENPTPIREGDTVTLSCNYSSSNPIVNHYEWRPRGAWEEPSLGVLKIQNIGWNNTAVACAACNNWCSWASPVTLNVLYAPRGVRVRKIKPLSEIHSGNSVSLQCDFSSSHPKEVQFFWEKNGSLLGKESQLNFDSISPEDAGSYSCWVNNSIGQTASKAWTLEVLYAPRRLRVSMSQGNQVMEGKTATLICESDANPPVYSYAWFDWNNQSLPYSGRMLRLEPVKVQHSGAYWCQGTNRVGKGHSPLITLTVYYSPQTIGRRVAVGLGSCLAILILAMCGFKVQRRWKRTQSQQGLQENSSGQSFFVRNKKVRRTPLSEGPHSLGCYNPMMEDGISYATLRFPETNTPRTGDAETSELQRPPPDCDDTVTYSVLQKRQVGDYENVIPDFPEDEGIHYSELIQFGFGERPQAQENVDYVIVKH
Assay: FACS, HEK293T-monkey CD22 cells
reported property: pEC50
The quantity pEC50 is defined as the negative base-10 logarithm of the molar concentration.

Here is how some binders turned out for pEC50.
- binder: "F2.121.9 (antibody, human IgG1, lambda, V domains shown, human-murine chimeric IgG1 lambda) VH: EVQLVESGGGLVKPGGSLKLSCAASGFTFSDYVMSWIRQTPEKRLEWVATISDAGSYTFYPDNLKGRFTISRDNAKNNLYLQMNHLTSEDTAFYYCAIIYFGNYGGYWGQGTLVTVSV VL: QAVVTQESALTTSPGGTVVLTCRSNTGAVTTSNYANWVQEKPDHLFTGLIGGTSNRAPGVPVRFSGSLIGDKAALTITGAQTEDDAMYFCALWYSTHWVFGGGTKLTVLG"
  pEC50: 9.01
- binder: "F2.205.9 (antibody, human IgG1, lambda, V domains shown, human-murine chimeric IgG1 lambda; VL name legible) VH: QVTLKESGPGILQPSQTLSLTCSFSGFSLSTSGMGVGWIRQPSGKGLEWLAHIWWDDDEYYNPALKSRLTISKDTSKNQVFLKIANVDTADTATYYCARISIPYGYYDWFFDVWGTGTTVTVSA VL: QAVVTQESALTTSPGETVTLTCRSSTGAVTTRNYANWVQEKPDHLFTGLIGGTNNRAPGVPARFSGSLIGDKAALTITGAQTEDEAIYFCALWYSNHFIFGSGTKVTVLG"
  pEC50: 9.40

# next binder below
-- ask Would you kindly share the measured pEC50 for F2.55.1 (antibody, human IgG1, lambda, V domains shown, human-murine chimeric IgG1 lambda; VL name legible) VH: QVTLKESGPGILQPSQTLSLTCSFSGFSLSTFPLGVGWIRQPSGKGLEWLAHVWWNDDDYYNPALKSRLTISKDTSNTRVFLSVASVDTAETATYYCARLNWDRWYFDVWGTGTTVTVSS VL: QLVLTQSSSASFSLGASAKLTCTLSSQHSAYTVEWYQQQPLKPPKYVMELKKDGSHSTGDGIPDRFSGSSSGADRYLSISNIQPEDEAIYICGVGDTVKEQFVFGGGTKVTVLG ?
-- reply 7.46

Data provenance is patent US20240084003A1.
